- Tested on: RPMI-8226 leukemia
- protocol: NCI-60 one-dose screen, 48 h
- condition set: 10 µM unless noted
This is part of a sample that, as a whole, favours compounds with a hit. Of some 83,000 tested, about 20% had one in any assay. Active and inactive are the calls of the source. Rule for the calls: active = growth percent below 10; inactive = the rest.
Answer with one of the outcomes 1 for active, -1 for inactive

Examples from the recorded data:
>>> group_label("O=S(=O)(NCCNc1cc(-c2cn(-c3ccccc3)nc2-c2ccccc2)ccn1)c1cccc2ccccc12")
-1
>>> group_label("O=C(OCCCCOC(=O)n1cnc2ccccc21)n1cnc2ccccc21")
-1
>>> group_label("COc1cc(Cn2c(SCC(=O)Nc3cc(OC)c(OC)c(OC)c3)nc3ccccc3c2=O)cc(OC)c1OC")
-1
>>> group_label("CCn1cc(C(=O)O)c(=O)c2cc(F)c(N3CCN(S(=O)(=O)c4ccc(Cl)cc4Cl)CC3)cc21")
1

Attention now turns to another entry.
Query: Any idea what this test logged for CCn1cc(C(=O)O)c(=O)c2cc(F)c(N3CCN(S(=O)(=O)c4ccc(OC)c(OC)c4)CC3)cc21 ?
Reply: -1

----------
- Test system: ACHN renal
- protocol: NCI-60 one-dose screen, 48 h (100 = growth as untreated, 0 = no growth, -100 = all killed)
- condition set: 10 µM unless noted
Compounds without any hit were thinned out: in the full panel of roughly 83,000, 20% have a hit.
hey, just use class 1 if measured growth is less than 90%, otherwise class 0

The following compounds have reported results that may help.
>>> group_label("COC1=CC(c2ccc[nH]2)=N/C1=C\\c1[nH]c(C)c(C(=O)CCC(=O)Oc2ccc3c(c2)CCC2C3CC[C@]3(C)[C@@H](O)CC[C@@H]23)c1C (some centres undefined)")
"class 1"
>>> group_label("CCN(Cc1ccccc1)c1ccc(SC#N)cc1")
"class 1"
>>> group_label("COc1ccc(/C=C(\\C#N)c2ccc([N+](=O)[O-])cc2)c2ccccc12")
"class 1"

API: the following record is the query input.
Query: growth under 90%? Item: CCCCNc1nnc(-c2cc(-c3cc4ccccc4o3)nn2-c2ccccc2)o1
Reply: class 1

----------
- System: ACHN renal
- protocol: NCI-60 one-dose screen, 48 h (100 = growth as untreated, 0 = no growth, -100 = all killed)
- condition set: 10 µM unless noted
About 83,000 compounds went through this panel and 20% of them were active in at least one assay; those are over-represented in the sample as a whole.
# growth >= 70% gives yes, anything below gives no

Would you please look over these solved cases?
>>> group_label("CC(C)(C)c1cn2cccc(C(=O)N3CCN(CC(=O)Nc4ccc(Cl)cc4C(=O)c4ccccc4Cl)CC3)c2n1")
"no"
>>> group_label("C=CCn1c(C)nc2ccc(Nc3nc(Nc4ccc(F)cc4)nc4ccccc34)cc21")
"no"
>>> group_label("COc1cc(C(=O)/C=C/c2cc(C(=O)c3cc(OC)c(OC)c(OC)c3)ccc2OC)ccc1N")
"no"
>>> group_label("COc1cccc(-c2nc3sccn3c2-c2ccnc(NCCNS(=O)(=O)c3ccccc3)n2)c1")
"no"
>>> group_label("Cc1ccc(S(=O)(=O)NCCCNc2nccc(-c3c(-c4ccccc4)nc4sccn34)n2)cc1")
"no"

Query: Say whether COc1ccc(NC(=O)CSc2nc3ccc(Cl)cc3c(=O)n2-c2ccccc2C(F)(F)F)c(OC)c1OC shows growth of 70% or more.
Reply: no

----------
- Test system: OVCAR-4 ovarian
- protocol: NCI-60 one-dose screen, 48 h (100 = growth as untreated, 0 = no growth, -100 = all killed)
- condition set: 10 µM unless noted
Compounds without any hit were thinned out: in the full panel of roughly 83,000, 20% have a hit.
Field: label. Allowed values: 1 (yes) (growth < 70%) or 0 (no) (growth >= 70%).

>>> group_label("CCC1CCc2nc3sc(C(=O)Nc4ccccc4C)c(N)c3cc2C1 (stereo unspecified)")
"0 (no)"
>>> group_label("COC1=CC(c2ccc[nH]2)=N/C1=C\\c1[nH]c(C)c(C(=O)CCCCC(=O)Oc2ccc3c(c2)CCC2C3CC[C@]3(C)[C@@H](O)CC[C@@H]23)c1C (stereo partly specified)")
"1 (yes)"

Query: Is it true that growth reported for COc1ccc(/C(=N\O)c2cc(OC)c(OC)c(OC)c2)c(OC)c1N is less than 70%?
Reply: 1 (yes)

Query: Given the entry Cc1ccc2c(c1)C(C)Cc1c(ncnc1-n1cnc3ccccc31)N2C (stereo unspecified) , would its reported growth be below 70%?
Reply: 1 (yes)

Query: State whether 70% exceeds growth recorded for O=C(CNC1CCCCC1)Nc1ccc(-c2nc3ccccc3s2)cc1 .
Reply: 0 (no)

----------
- Test system: SK-MEL-5 melanoma
- protocol: NCI-60 one-dose screen, 48 h (100 = growth as untreated, 0 = no growth, -100 = all killed)
- condition set: 10 µM unless noted
The panel holds about 83,000 compounds, 20% with a hit somewhere; the sample as a whole holds those more often.
Class true: growth at least 30%. Class false: growth below 30%.

Recorded results for 10 compounds are shown here.
>>> group_label("O=C(/C=C/CN1CCOCC1)Nc1cc2c(Nc3cccc(Cl)c3F)ncnc2cc1OCCOC(F)F")
"true"
>>> group_label("CC(C)(C)c1ccc(S(=O)(=O)Oc2ccc3c4c(c(=O)oc3c2)CCCCC4)cc1")
"false"
>>> group_label("COc1cc(-c2nc(-c3nc4ccccc4[nH]3)cc3c2[nH]c2ccccc23)cc(OC)c1OC")
"false"
>>> group_label("NC(CC(N)C(=O)O)C(=O)O (stereo not given)")
"true"
>>> group_label("COc1ccc(/C=C/c2nc(N3CCOCC3)c3nc(Cl)c(Cl)cc3n2)cc1OC")
"true"
>>> group_label("Nc1nc(-c2cc3ccccc3o2)cc(=O)c(=O)[nH]1")
"true"
>>> group_label("CCOC(=O)C1=C(CSC(=S)N(C2CCCCC2)C2CCCCC2)N(C)C(=O)NC1c1ccccc1 (stereo not given)")
"false"
>>> group_label("COc1ccc(Cl)cc1NC(N)=S")
"true"
>>> group_label("Nc1c(C(=O)Nc2cccc(C(F)(F)F)c2)sc2nc3c(cc12)C(O)CCC3 (stereo not given)")
"false"
>>> group_label("COc1ccc2c(c1)NC(=O)CN2c1nc(C)nc2ccccc12")
"false"

Query: Threshold query (growth >= 30%) on CCN(CC)CCCNc1nc(C)cc(Nc2ccc3nc(C)cc(N)c3c2)n1
Reply: true

Query: Would you say O=C(c1ccccc1)C(Cl)C(Cl)c1ccccc1 (stereo not given) shows growth at minimum 30%?
Reply: true

Query: Evaluate O=[N+]([O-])c1cccc(-c2cc(-c3cc(Br)ccc3O)[nH]n2)c1 : growth at minimum 30%?
Reply: false

Query: Determine whether this compound has growth no lower than 30%: NCCSC(c1ccccc1)(c1ccccc1)c1ccccc1
Reply: false

Query: Is it the case that CC(C(=O)n1cc(-c2ccccc2)c(-c2ccccc2)c1)c1ccccc1 (stereo not given) has growth reaching or exceeding 30%?
Reply: true

----------
- Test system: A498 renal
- protocol: NCI-60 one-dose screen, 48 h (100 = growth as untreated, 0 = no growth, -100 = all killed)
- condition set: 10 µM unless noted
- Method: Growth inhibition of the A498 human tumor cell line is measured as a screen for anti-cancer activity. Cells are grown in 96 well plates and exposed to the test compound for 48 hours. Compounds are tested at a single concentration, which is 10^-5 M for most compounds. The reported endpoint is percent growth (GI% or GIPRCNT), where numbers from 0 - 100% represent growth inhibition, and numbers from -100% - 0 represent cell death. For example, a value of 40 represents 60% growth inhibition. […]
The panel holds about 83,000 compounds, 20% with a hit somewhere; the sample as a whole holds those more often. The source made the active and inactive calls. The calls were made as follows: active = growth percent below 10; inactive = the rest.
endpoint name: growth

>>> result_value("COc1cc(Cn2c(SCC(=O)Nc3cc(OC)c(OC)c(OC)c3)nc3ccccc3c2=O)cc(OC)c1OC")
"62.4% (inactive)"
>>> result_value("CC(C)(C)c1cc(-c2nc3ccc(N4CCN(CCO)CC4)cc3[nH]2)cc(C(C)(C)C)c1O")
"86.1% (inactive)"
>>> result_value("COc1ccc(NC(=O)CSc2nc3ccccc3c(=O)n2-c2ccccc2C(F)(F)F)c(OC)c1OC")
"74.8% (inactive)"
>>> result_value("COc1cc(-c2nc(-c3nc4ccccc4[nH]3)cc3c2[nH]c2ccccc23)cc(OC)c1OC")
"44.8% (inactive)"
>>> result_value("COc1cc(Cn2c(SCCC(=O)Nc3ccc(F)cc3)nc3ccccc3c2=O)cc(OC)c1OC")
"63.3% (inactive)"
>>> result_value("COc1cc2c(cc1OC)C1(C)N(CC2)C(=O)OC1(C)C (stereo not drawn)")
"78.8% (inactive)"

List growth for every entry below, keeping the order given.
1. CCn1cc(C(=O)O)c(=O)c2cc(F)c(N3CCN(S(=O)(=O)c4cccc5ccccc45)CC3)cc21
2. O=C(O)c1ccc(-n2c(=O)c3ccccc3c3ccccc3c2=O)cc1
3. CC(=O)Nc1nc(C(=O)N2N=C(C)/C(=C/c3ccccc3)C2=O)cs1
4. O=C(CN1CCN(c2cc3c(cc2F)c(=O)c(C(=O)O)cn3C2CC2)CC1)Nc1ccc(C(=O)/C=C/c2ccccc2)cc1
5. CC1Cc2c(N(C)C)ncnc2N(C)c2ccc(Cl)cc21 (stereo not drawn)

Reply:
1: -0.385% (active); 2: 118% (inactive); 3: 120% (inactive); 4: 57.7% (inactive); 5: -12.5% (active)

Please look at the items below and tell me growth for each one, in order.
1. CC(C)(C)OC(=O)N1C/C(=C\c2cccs2)C(=O)/C(=C/c2cccs2)C1
2. Cc1ccc2c(c1)ncn2-c1ncnc2c1CC(C)c1ccccc1N2C (stereo not drawn)
3. Cc1cc(Nc2nc(-c3ccc(F)cc3)nc3ccccc23)n[nH]1
4. CCN1C(=O)N[C@H]2[C@@H]3NC(=O)c4ccc(Cl)n4[C@@H]3C[C@]21O
5. COc1ccc(/C=C/C(=O)c2ccc(B(O)O)cc2)cc1O
6. O=C(O)Cc1ccc2c(c1)Cc1cccnc1O2

Reply:
1: 81.9% (inactive); 2: -11.7% (active); 3: 1.89% (active); 4: -0.0737% (active); 5: 61.8% (inactive); 6: 104% (inactive)
